fold induction at 50 µM values, listed per item
- Tested on: P. aeruginosa
- ASSAY METHOD TEXT: AK assay 384-well format, Prestwick library screening
- Type: cell-based, Pseudomonas aeruginosa
- CONDITION SUMMARY: Pseudomonas aeruginosa, 3 h; 50 μM final drug concentration; cutoff for positive-scoring molecules 3-fold increase; read-out: AK-based Prestwick Library Screening Results, P. aeruginosa (fold increase in extracellular AK activity)
Structures can show the parent of a compound that is named as a salt.

{"columns": ["MOLECULE", "ASSAYED SYSTEM", "fold induction at 50 µM"],
 "data": [
  ["CC[N+](CC)(CC(=O)Nc1c(C)cccc1C)Cc1ccccc1 [Denatonium benzoate]", "P. aeruginosa", 0.4],
  ["CO[C@@]1(NC(=O)CSCC#N)C(=O)N2C(C(=O)O)=C(CSc3nnnn3C)CS[C@@H]21 [Cefmetazole sodium salt]", "P. aeruginosa", 1],
  ["Cc1cc(C(=O)NNCc2ccccc2)no1", "P. aeruginosa", 1.1],
  ["NC(N)=NCCCCN=C(N)N [Arcaine sulfate]", "P. aeruginosa", 0.8],
  ["CCCCCCCCCCCCCCCC[N+](C)(C)CCN(Cc1ccc(OC)cc1)c1ncccn1 [Thonzonium bromide]", "P. aeruginosa", 1.5],
  ["CC(C)n1c(/C=C/C(O)CC(O)CC(=O)O)c(-c2ccc(F)cc2)c2ccccc21 (centres unmarked) [Fluvastatin sodium salt]", "P. aeruginosa", 1],
  ["Fc1ccc([C@@H]2CCNC[C@H]2COc2ccc3c(c2)OCO3)cc1 [Paroxetine Hydrochloride]", "P. aeruginosa", 1.3],
  ["CN(C)CCCC1(c2ccc(F)cc2)OCc2cc(C#N)ccc21 (centres unmarked) [Citalopram Hydrobromide]", "P. aeruginosa", 1.2]
]}

----------
- Test system: E. cloacae
- ASSAY METHOD TEXT: AK assay 384-well format, Prestwick library screening
- Format: cell-based, Enterobacter cloacae
- CONDITION SUMMARY: Enterobacter cloacae, 3 h; planktonic E. cloacae; 50 μM final drug concentration; positive cutoff 3-fold increase; read-out: AK-based Prestwick library screening result, E. cloacae (fold increase in extracellular AK activity)
Counter-ions that a name gives are not always drawn.

{"columns": ["MOLECULE", "fold induction at 50 µM"],
 "data": [
  ["C=C(C)[C@@H]1CC[C@]2(CO)CC[C@]3(C)[C@H](CC[C@@H]4[C@@]5(C)CC[C@H](O)C(C)(C)[C@@H]5CC[C@]43C)[C@@H]12 [Betulin]", 1.3],
  ["C[C@@H]1C[C@H]2[C@@H]3C[C@H](F)C4=CC(=O)C=C[C@]4(C)[C@@]3(Cl)[C@@H](O)C[C@]2(C)[C@H]1C(=O)COC(=O)C(C)(C)C [Clocortolone pivalate]", 1.6],
  ["Cc1cccc(C)c1NC(=O)C(C)N (centres unmarked) [Tocainide hydrochloride]", 1.4],
  ["CC(C[N+](C)(C)C)OC(N)=O (centres unmarked) [Bethanechol chloride]", 0.9],
  ["CCC1(c2ccccc2)NC(=O)N(C)C1=O (centres unmarked) [Mephenytoin]", 1.3],
  ["CC[N+](C)(CC)CCOC(=O)C1c2ccccc2Oc2ccccc21 [Methantheline bromide]", 1.1],
  ["COCCCC/C(=N\\OCCN)c1ccc(C(F)(F)F)cc1 [Fluvoxamine maleate]", 1.1],
  ["C[C@]12CC[C@@H]3c4ccc(O)cc4CC[C@H]3[C@@H]1C[C@@H](O)[C@@H]2O [Estriol]", 1.4]
]}
